pIC50: −log10 of the molar value.
These compounds were tested on UniProt:A0A3Q1MT31; pIC50 is the recorded read-out.
Sequence (A0A3Q1MT31 1-419): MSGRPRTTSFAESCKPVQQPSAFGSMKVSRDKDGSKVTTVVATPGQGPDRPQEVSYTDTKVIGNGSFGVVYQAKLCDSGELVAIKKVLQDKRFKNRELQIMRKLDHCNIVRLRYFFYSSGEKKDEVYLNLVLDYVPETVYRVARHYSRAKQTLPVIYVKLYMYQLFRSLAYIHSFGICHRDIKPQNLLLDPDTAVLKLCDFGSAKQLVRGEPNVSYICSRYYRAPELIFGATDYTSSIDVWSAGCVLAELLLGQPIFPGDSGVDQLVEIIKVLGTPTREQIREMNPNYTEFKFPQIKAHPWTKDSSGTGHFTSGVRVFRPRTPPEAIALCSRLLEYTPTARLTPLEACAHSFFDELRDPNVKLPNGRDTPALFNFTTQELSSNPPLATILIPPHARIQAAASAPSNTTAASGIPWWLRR
Readout: pIC50

Query: Given the entry O=c1cc(-c2ccncc2)nc(-c2cccc(Br)c2)[nH]1 [Example 19] , what pIC50 was observed with UniProt:A0A3Q1MT31?
Reply: 5.06

Query: Lab request: please report pIC50 under test system UniProt:A0A3Q1MT31 for O=c1cc(-c2ccncc2)nc(CCc2ccccc2)[nH]1 [Example 35]
Reply: 5.05

Query: I'm curious: which pIC50 was measured for N#Cc1cccc(-c2nc(-c3ccncc3)cc(=O)[nH]2)c1 [Example 22] tested on UniProt:A0A3Q1MT31?
Reply: 5.21
